Assay Summary: in vitro
Applied Conditions: African green monkey
Observable: CC50

query_smiles=CC(C)(C)NCc1cc(Nc2ccnc3cc(Cl)ccc23)cc(-c2ccc(Cl)cc2)c1O observable=CC50 observed="> 25 µM"
